# credit: patent US10016427B2

experiment: Solid state storage stability (Peak Area % measured by HPLC); format: physicochemical; conditions: solid state; -20° C. freezer; initial
Where a name gives a salt, the structure may show the parent alone.
reported endpoint: Peak Area % Initial (%)

molecule | reported endpoint | result value
NS(=O)(=O)OC[C@@H]1C[C@@H](n2ccc3c(N[C@H]4CCc5ccccc54)ncnc32)C[C@@H]1O.[K] [potassium salt (amorphous), reference compound] | Peak Area % Initial | 96.9
NS(=O)(=O)OC[C@@H]1C[C@@H](n2ccc3c(N[C@H]4CCc5ccccc54)ncnc32)C[C@@H]1O [free base (amorphous), reference compound] | Peak Area % Initial | 96.0
NS(=O)(=O)OC[C@@H]1C[C@@H](n2ccc3c(N[C@H]4CCc5ccccc54)ncnc32)C[C@@H]1O [HCl Salt Form 2] | Peak Area % Initial | 98.3
NS(=O)(=O)OC[C@@H]1C[C@@H](n2ccc3c(N[C@H]4CCc5ccccc54)ncnc32)C[C@@H]1O [HCl Salt Form 1] | Peak Area % Initial | 99.2

---

experiment: Solubility of Form 1 in water; format: physicochemical; details: pH 2.33, thermodynamic from solid; in water
Counter-ions that a name gives are not always drawn.
reported endpoint: solubility

compound | result value
NS(=O)(=O)OC[C@@H]1C[C@@H](n2ccc3c(N[C@H]4CCc5ccccc54)ncnc32)C[C@@H]1O [HCl Salt Form 1] | ~7800 µg/mL
